Kindly supply the reported kon values for the records listed here.
TESTED_ON: T1, soluble human CTLA-4 expressed with a C-terminal myc-myc-polyhistidine tag (human)
T1 construct: soluble protein; also called hCTLA-4.mmh; hCTLA4.mmh
PROCEDURE_DETAILS: SPR, mAb capture, 25 C
Give bare numbers, in M⁻¹ s⁻¹.

H1H19278P (antibody, human IgG1, V domains shown) VH: QVQLVESGGGVVQPGRSLRLSCAASGFTFSSYGMNWVRQAPGKGLEWVAVTWYDGSNKHYADSVKGRFTISRDNSKNTLYLQMYSLRAEDTAMYYCVRGGHLGAFDIWGQGTMVTVSS VL: EIVLTQSPGTLSLSPGERATLSCRASQSVSSYLAWYQQKPGQAPRLLIYGASSRATGIPDRFSGGGSGTDFTLTISRLEPEDFAVYYCQQYGSSPFTFGPGTKVDIK : 179000

Per the records, this binder ( H1H19264P (antibody, human IgG1, V domains shown) VH: QVQLVQSGAEVKKPGASVKVSCKASDYTFTSYGISWVRQAPGQGLEWMGWISVYNGNINYAQKFKGRVTMTTDTSTSTAYMELRSLRSDDMAVYYCARVTQFGMDVWGQGTTVTVSS VL: DIQMTQSPSSLSASVGDRVTITCRASQSISSNLNWYQQNPGKAPKLLIYTTSSLQGGVPSRFSGSGSGTDFTLTISSLQPEDFATYYCQQSFRTPFTFGPGTKVDIK ) has kon equal to 60400

Value source: patent US20210040232A1
